Value source: the FLAb antibody collection (doi:10.7554/elife.23156)

B1: scFv; the commonest letter at each place (parent)
chain 1: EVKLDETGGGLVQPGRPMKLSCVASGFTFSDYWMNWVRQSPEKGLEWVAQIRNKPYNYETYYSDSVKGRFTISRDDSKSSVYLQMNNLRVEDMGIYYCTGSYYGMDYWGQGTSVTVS
chain 2: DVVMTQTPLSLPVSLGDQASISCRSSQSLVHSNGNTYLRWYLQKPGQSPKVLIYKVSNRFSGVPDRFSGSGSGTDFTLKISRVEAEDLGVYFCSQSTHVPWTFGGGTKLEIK

variants of: B1; assay: Kd (Tite-Seq); conditions: with fluorescein; format: scFv 4-4-20, heavy + light
MEASUREMENT KIND: Kd

## Input State the recorded Kd for this entry: chain 1 T28P S30N
## Output 0.000989 µM

## Input State the recorded Kd for this entry: chain 1 Y102M Y103F D106Y
## Output ≥ 10 µM

## Input State the recorded Kd for this entry: chain 1 Y32W W36Q
## Output ≥ 10 µM

## Input State the recorded Kd for this entry: chain 1 G100W
## Output ≥ 10 µM

## Input State the recorded Kd for this entry: chain 1 G104Y W108L
## Output ≥ 10 µM

## Input State the recorded Kd for this entry: chain 1 G100P S101T
## Output ≥ 10 µM

## Input State the recorded Kd for this entry: chain 1 W36T V37L
## Output ≥ 10 µM

## Input State the recorded Kd for this entry: chain 1 W33D W36M
## Output ≥ 10 µM

## Input State the recorded Kd for this entry: chain 1 M105K G109W
## Output ≥ 10 µM

## Input State the recorded Kd for this entry: chain 1 D31M
## Output 0.00194 µM

## Input State the recorded Kd for this entry: chain 1 M34L N35P
## Output ≥ 10 µM

## Input State the recorded Kd for this entry: chain 1 G109C
## Output ≥ 10 µM

## Input State the recorded Kd for this entry: chain 1 S30H Y32R V37Q
## Output 0.0189 µM

## Input State the recorded Kd for this entry: chain 1 Y103V
## Output 0.0158 µM

## Input State the recorded Kd for this entry: chain 1 M34I N35Y V37Y
## Output ≥ 10 µM

## Input State the recorded Kd for this entry: chain 1 D106C W108H
## Output ≥ 10 µM

## Input State the recorded Kd for this entry: chain 1 Y102M M105K D106W
## Output ≥ 10 µM

## Input State the recorded Kd for this entry: chain 1 Y32K W33I
## Output ≥ 10 µM

## Input State the recorded Kd for this entry: chain 1 Y102A Y103K G109C
## Output ≥ 10 µM

## Input State the recorded Kd for this entry: chain 1 D31A V37K
## Output 0.382 µM

## Input State the recorded Kd for this entry: chain 1 G109H
## Output ≥ 10 µM

## Input State the recorded Kd for this entry: chain 1 W108A G109H
## Output ≥ 10 µM

## Input State the recorded Kd for this entry: chain 1 Y107G W108A
## Output ≥ 10 µM

## Input State the recorded Kd for this entry: chain 1 Y103V W108Y
## Output 0.0011 µM
